EXPERIMENT: IV and PO single dose pharmacokinetic studies in SD rats
Type: in vivo
CONDITION CONTEXT: Sprague-Dawley, rat, plasma, comparative table, male SD rats, oral 20 mg/kg vs IV
READOUT TYPE: bioavailability (%)
Give bare numbers, in %.

// query Provide only the value of recorded bioavailability for COC(=O)N[C@H](C(=O)N1C[C@]2(CCCOC2)C[C@H]1c1ncc(-c2ccc(-c3ccc4c(ccc5nc([C@@H]6CCCN6C(=O)[C@@H](NC(=O)OC)C(C)C)[nH]c54)c3)cc2)[nH]1)C(C)C [drawing 233]
// result 7

###

Give EC50 for every item shown.
System: GT1a replicon encoding NS5A mutation M28T
EXPERIMENT: Transient replication assay, GT1a replicon with NS5A mutation M28T
Assay type: cell-based
CONDITION CONTEXT: Hepatitis C virus, read-out: EC50 1a M28T
Numbers only, in pM.

Use these answered entries as a reference point.
COC(=O)N[C@H](C(=O)N1C[C@]2(CCCOC2)C[C@H]1c1nc2ccc3cc(-c4ccc5c(ccc6nc([C@@H]7C[C@@H]8C[C@@H]8N7C(=O)[C@@H](NC(=O)OC)C(C)C)[nH]c65)c4)ccc3c2[nH]1)C(C)C 200
COC(=O)N[C@H](C(=O)N1C[C@]2(CCCOC2)C[C@H]1c1ncc(-c2ccc(-c3ccc4c(ccc5nc([C@@H]6C[C@@H]7CCC[C@@H]7N6C(=O)[C@@H](NC(=O)OC)C(C)C)[nH]c54)c3)cc2)[nH]1)C(C)C 80
COC(=O)N[C@H](C(=O)N1CCC[C@H]1c1ncc(-c2ccc(-c3ccc4c(c3)OCc3nc([C@@H]5C[C@@]6(CCCOC6)CN5C(=O)[C@@H](NC(=O)OC)C(C)C)[nH]c3-4)cc2)[nH]1)C(C)C 300

Now look at this one.
// query Provide only the value of recorded EC50 for `COC(=O)N[C@H](C(=O)N1C[C@]2(CCCOC2)C[C@H]1c1nc2ccc3cc(-c4ccc(-c5cnc([C@@H]6C[C@@H]7C[C@@H]7N6C(=O)[C@@H](NC(=O)OC)C(C)C)[nH]5)cc4)ccc3c2[nH]1)C(C)C`
// result 100
